Test system: 922993-354-T-J3-PDC complex spheroids, viability, % test/control
Assay: Anticancer human tumor 922993-354-T-J3-PDC patient-derived endometrial carcinoma cell line growth inhibition [CLK]
Conditions: second compound 3.16 µM; first compound 0.0316 µM; hits give low values
Recorded viability, T/C, one value per entry.
State just the number; it will be interpreted in %.

Some solved entries appear below for comparison.
COC1C=CCC(C)C(C)S(=O)(=O)NC(=O)c2ccc3c(c2)N(CC2CCC21)CC1(CCCc2cc(Cl)ccc21)CO3 (stereo not drawn) + CNC(=O)c1ccc(Nc2nc(OC3CCCC3)c3c(-c4ccc5nc(C)oc5c4)c[nH]c3n2)c(OC)c1 : 27.3
C=CC(=O)N1CCN(c2nc(=O)n(-c3c(C)ccnc3C(C)C)c3nc(-c4c(O)cccc4F)c(F)cc23)C(C)C1 (stereo not drawn) + CNC(=O)c1ccc(Nc2nc(OC3CCCC3)c3c(-c4ccc5nc(C)oc5c4)c[nH]c3n2)c(OC)c1 : 34.3

# input for lookup
Item CC(=O)O[C@H]1C(=O)[C@@]2(C)[C@H]([C@H](OC(=O)c3ccccc3)[C@]3(O)C[C@H](OC(=O)[C@H](O)[C@@H](NC(=O)c4ccccc4)c4ccccc4)C(C)=C1C3(C)C)[C@]1(OC(C)=O)CO[C@@H]1C[C@@H]2O + CNC(=O)c1ccc(Nc2nc(OC3CCCC3)c3c(-c4ccc5nc(C)oc5c4)c[nH]c3n2)c(OC)c1 with 922993-354-T-J3-PDC complex spheroids, viability, % test/control - viability, T/C?
34.6

###

Test system: 922993-354-T-J3-PDC complex spheroids, viability, % test/control
Experiment: Anticancer human tumor 922993-354-T-J3-PDC cell line growth inhibition [CLK]; active = viability on the fitted dose curve at most 10% of control; inactive = the rest;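 also: spheroids exposed to the agents for 7 days before readout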
Conditions: second compound 1 µM; first compound 0.316 µM
Bench note: report the call from 1 (active), 0 (inactive)

These solved cases illustrate the format of a correct answer.
CC(=O)O[C@H]1C(=O)[C@@]2(C)[C@H]([C@H](OC(=O)c3ccccc3)[C@]3(O)C[C@H](OC(=O)[C@H](O)[C@@H](NC(=O)c4ccccc4)c4ccccc4)C(C)=C1C3(C)C)[C@]1(OC(C)=O)CO[C@@H]1C[C@@H]2O + CNC(=O)c1ccc(Nc2nc(OC3CCCC3)c3c(-c4ccc5nc(C)oc5c4)c[nH]c3n2)c(OC)c1 : 0
CC1COCCN1c1cc(C2(S(C)(=N)=O)CC2)nc(-c2ccnc3[nH]ccc23)n1 (centres undefined) + CN1CCN(c2cc(C(=O)Nc3cc4cc(-c5cnn(C)c5)ccc4cn3)ccn2)CC1 : 1

Answer briefly: the call reported for CC(CO)NC(=O)c1cc(-c2ccc(Cl)cc2)nn(-c2cnn(C)c2)c1=O (centres undefined) + CNC(=O)c1ccc(Nc2nc(OC3CCCC3)c3c(-c4ccc5nc(C)oc5c4)c[nH]c3n2)c(OC)c1 in this assay.
0

How about this compound: C#Cc1c(F)ccc2cc(O)cc(-c3ncc4c(N5CC6CCC(C5)N6)nc(OCC56CCCN5CC(F)C6)nc4c3F)c12 (centres undefined) + CNC(=O)c1ccc(Nc2nc(OC3CCCC3)c3c(-c4ccc5nc(C)oc5c4)c[nH]c3n2)c(OC)c1
0

###

System: 922993-354-T-J3-PDC complex spheroids, viability, % test/control
Test: Anticancer human tumor 922993-354-T-J3-PDC cell line growth inhibition [CLK];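 also: spheroids exposed to the agents for 7 days before readout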
Conditions: second compound 1 µM; first compound 10 µM; hits give low values
observed property: viability, T/C (%)
State just the number; it will be interpreted in %.

Some solved entries appear below for comparison.
C=CC(=O)N1CCN(c2nc(=O)n(-c3c(C)ccnc3C(C)C)c3nc(-c4c(O)cccc4F)c(F)cc23)C(C)C1 (stereo not given) + CNC(=O)c1ccc(Nc2nc(OC3CCCC3)c3c(-c4ccc5nc(C)oc5c4)c[nH]c3n2)c(OC)c1 : 44.8
CCCS(=O)(=O)Nc1ccc(F)c(C(=O)c2c[nH]c3ncc(-c4ccc(Cl)cc4)cc23)c1F + CNC(=O)c1ccc(Nc2nc(OC3CCCC3)c3c(-c4ccc5nc(C)oc5c4)c[nH]c3n2)c(OC)c1 : 24.3

Given the compound C#Cc1c(F)ccc2cc(O)cc(-c3ncc4c(N5CC6CCC(C5)N6)nc(OCC56CCCN5CC(F)C6)nc4c3F)c12 (stereo not given) + CN1CCN(c2cc(C(=O)Nc3cc4cc(-c5cnn(C)c5)ccc4cn3)ccn2)CC1 , what is its reported viability, T/C?
0.14

How about this compound: CC(CO)NC(=O)c1cc(-c2ccc(Cl)cc2)nn(-c2cnn(C)c2)c1=O (stereo not given) + CNC(=O)c1ccc(Nc2nc(OC3CCCC3)c3c(-c4ccc5nc(C)oc5c4)c[nH]c3n2)c(OC)c1
34.3

How about this compound: C#Cc1c(F)ccc2cc(O)cc(-c3ncc4c(N5CC6CCC(C5)N6)nc(OCC56CCCN5CC(F)C6)nc4c3F)c12 (stereo not given) + CNC(=O)c1ccc(Nc2nc(OC3CCCC3)c3c(-c4ccc5nc(C)oc5c4)c[nH]c3n2)c(OC)c1
35.8
